System: THRa:RXRa (NR concentration 90 nM, RXRa partner concentration 90 nM)
EXPERIMENTAL_DETAILS: PBM binding z-score (relative to random genomic background probes); higher = stronger binding; sequences stand for … in GC…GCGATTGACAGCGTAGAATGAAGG
Where PBM binding z-score equals or exceeds 1, the correct label is t; where it does not, the label is f.

{"ITEM_SEQUENCE": "GCTGCTAGGTCAGGTTGGGCAGCTAACGGGTACG", "CAT": "t"}
{"ITEM_SEQUENCE": "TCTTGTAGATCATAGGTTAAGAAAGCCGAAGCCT", "CAT": "f"}
{"ITEM_SEQUENCE": "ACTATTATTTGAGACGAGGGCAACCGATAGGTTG", "CAT": "t"}
{"ITEM_SEQUENCE": "CCGACTGGGCCAAAGGTTACCATACTCAGTACGA", "CAT": "t"}
{"ITEM_SEQUENCE": "TCTGCTAGGTCAACGATGGTCCGCTAATCTGCTA", "CAT": "t"}
{"ITEM_SEQUENCE": "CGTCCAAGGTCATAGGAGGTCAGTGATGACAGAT", "CAT": "t"}
{"ITEM_SEQUENCE": "CCTAGTTGGTCAGTAGGTCACACACCGGATATGA", "CAT": "t"}
{"ITEM_SEQUENCE": "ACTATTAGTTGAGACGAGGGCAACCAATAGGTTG", "CAT": "t"}
{"ITEM_SEQUENCE": "GCTTATAGATCAAGGTTAAGAAAGACTAAGCTAA", "CAT": "t"}
{"ITEM_SEQUENCE": "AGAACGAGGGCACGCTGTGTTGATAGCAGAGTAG", "CAT": "t"}
{"ITEM_SEQUENCE": "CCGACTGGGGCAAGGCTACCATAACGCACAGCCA", "CAT": "f"}
{"ITEM_SEQUENCE": "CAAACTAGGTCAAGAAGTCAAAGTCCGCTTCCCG", "CAT": "t"}
{"ITEM_SEQUENCE": "ACAGACAGGTGATGAAGGTATCTCAGGCTATCAT", "CAT": "f"}
{"ITEM_SEQUENCE": "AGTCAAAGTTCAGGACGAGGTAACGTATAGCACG", "CAT": "t"}
{"ITEM_SEQUENCE": "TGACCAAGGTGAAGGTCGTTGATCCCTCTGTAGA", "CAT": "t"}
{"ITEM_SEQUENCE": "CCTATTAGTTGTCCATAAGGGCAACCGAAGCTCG", "CAT": "t"}
{"ITEM_SEQUENCE": "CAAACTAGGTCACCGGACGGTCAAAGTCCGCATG", "CAT": "t"}
{"ITEM_SEQUENCE": "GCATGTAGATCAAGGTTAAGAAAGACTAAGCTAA", "CAT": "t"}
{"ITEM_SEQUENCE": "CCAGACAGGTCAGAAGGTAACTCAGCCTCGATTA", "CAT": "t"}
{"ITEM_SEQUENCE": "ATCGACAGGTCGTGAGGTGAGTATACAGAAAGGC", "CAT": "t"}
{"ITEM_SEQUENCE": "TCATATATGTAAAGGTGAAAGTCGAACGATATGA", "CAT": "t"}
{"ITEM_SEQUENCE": "GCGACTGGGGCGTCAGCAGGTTACCATAACTTAA", "CAT": "f"}
{"ITEM_SEQUENCE": "AGTCAAAGTTCAGGACTAGGTAACGTAAAGCACG", "CAT": "t"}
{"ITEM_SEQUENCE": "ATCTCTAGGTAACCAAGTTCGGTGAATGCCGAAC", "CAT": "f"}
{"ITEM_SEQUENCE": "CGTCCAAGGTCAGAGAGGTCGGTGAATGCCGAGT", "CAT": "t"}
{"ITEM_SEQUENCE": "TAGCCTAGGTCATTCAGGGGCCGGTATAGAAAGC", "CAT": "t"}
{"ITEM_SEQUENCE": "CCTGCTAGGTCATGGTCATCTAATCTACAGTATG", "CAT": "t"}
{"ITEM_SEQUENCE": "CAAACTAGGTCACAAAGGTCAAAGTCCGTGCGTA", "CAT": "t"}
{"ITEM_SEQUENCE": "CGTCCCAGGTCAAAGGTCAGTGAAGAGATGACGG", "CAT": "t"}
{"ITEM_SEQUENCE": "ATCTCGAGGTAACCAAGTTCAGTGAATGCCGAAC", "CAT": "t"}
{"ITEM_SEQUENCE": "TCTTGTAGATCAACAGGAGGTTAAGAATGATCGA", "CAT": "f"}
{"ITEM_SEQUENCE": "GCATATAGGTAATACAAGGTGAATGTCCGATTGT", "CAT": "t"}
{"ITEM_SEQUENCE": "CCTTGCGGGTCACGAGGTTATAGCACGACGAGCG", "CAT": "t"}
{"ITEM_SEQUENCE": "TCTTGTAGATCGAAGGTTAAGAAAGCCGAAGCCT", "CAT": "f"}
{"ITEM_SEQUENCE": "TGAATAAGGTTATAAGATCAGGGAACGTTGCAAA", "CAT": "t"}
{"ITEM_SEQUENCE": "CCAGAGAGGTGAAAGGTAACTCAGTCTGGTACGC", "CAT": "t"}
{"ITEM_SEQUENCE": "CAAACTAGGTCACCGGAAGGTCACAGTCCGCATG", "CAT": "t"}
{"ITEM_SEQUENCE": "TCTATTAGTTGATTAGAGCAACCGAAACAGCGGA", "CAT": "f"}
{"ITEM_SEQUENCE": "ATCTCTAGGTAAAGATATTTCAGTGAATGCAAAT", "CAT": "f"}
{"ITEM_SEQUENCE": "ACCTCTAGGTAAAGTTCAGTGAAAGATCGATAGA", "CAT": "f"}
{"ITEM_SEQUENCE": "GGAACGAGGGCATTCGAGTTGAGAGCATGGCGAT", "CAT": "t"}
{"ITEM_SEQUENCE": "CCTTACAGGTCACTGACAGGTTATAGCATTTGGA", "CAT": "t"}
{"ITEM_SEQUENCE": "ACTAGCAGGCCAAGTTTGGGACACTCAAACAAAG", "CAT": "t"}
{"ITEM_SEQUENCE": "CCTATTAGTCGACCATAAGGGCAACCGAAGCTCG", "CAT": "t"}
{"ITEM_SEQUENCE": "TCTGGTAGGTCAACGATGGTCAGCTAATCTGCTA", "CAT": "t"}
{"ITEM_SEQUENCE": "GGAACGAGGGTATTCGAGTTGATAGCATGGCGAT", "CAT": "t"}
{"ITEM_SEQUENCE": "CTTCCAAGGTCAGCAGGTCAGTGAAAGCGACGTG", "CAT": "t"}
{"ITEM_SEQUENCE": "CAAATTAGGTCACCGGAAGGTCAAAGTCCGCATG", "CAT": "t"}
{"ITEM_SEQUENCE": "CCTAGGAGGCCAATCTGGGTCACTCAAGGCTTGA", "CAT": "t"}
{"ITEM_SEQUENCE": "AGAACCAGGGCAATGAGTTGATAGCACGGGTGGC", "CAT": "f"}
{"ITEM_SEQUENCE": "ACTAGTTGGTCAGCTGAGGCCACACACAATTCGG", "CAT": "t"}
